Each entry below carries its recorded IC50.
# System: iNOS transcripts
# assay_protocol: Inhibition of LPS induction of iNOS transcripts in macrophages (rt-PCR)
# Type: cell-based
# experimental_parameters: Mus musculus, Macrophage; LPS-treated murine macrophages, mRNA transcripts by rt-PCR
Answer format: numeric, nM implied, no suffix.

CCn1c(-c2cccc(Cl)c2)c[nH]c1=O [COB-125] ... 43000
OC1(c2ccccc2)CSC(=S)N1CCCc1ccccc1 (centres unmarked) [COB-168] ... 1500
COc1ccc(-c2c[nH]c(=S)n2C)cc1OC [COB-123] ... 55000
OC1(c2ccccc2)CSC(=S)N1Cc1cccnc1 (centres unmarked) [COB-152] ... 156
COc1cccc(-c2c[nH]c(=S)n2C)c1 [COB-117] ... 36000

Give me measured IC50, please, for this compound: Cc1ccccc1C1(O)CSC(=S)N1Cc1cccnc1 (centres unmarked) [COB-224]
400

Look up IC50 of Oc1cccc(C2(O)CSC(=S)N2Cc2ccccc2)c1 (centres unmarked) [COB-196] and report it.
500

For the compound COc1ccc(OC)c(-c2c[nH]c(=S)n2C)c1 [COB-132] , give its reported IC50.
38000

Answer with the recorded IC50 for the compound listed here: OC1(c2ccccc2)CSC(=S)N1Cc1nc2ccccc2[nH]1 (centres unmarked) [COB-183]
9500

Hello, please tell me recorded IC50 for this one: Oc1ccc(Cl)cc1C1(O)CSC(=S)N1Cc1cccnc1 (centres unmarked) [COB-222]
450

Please give the documented IC50 of Oc1ccc(C2(O)CSC(=S)N2Cc2cccnc2)c(O)c1 (centres unmarked) [COB-200]
500
